# System: A498 renal
# test.method.notes: NCI tumour cell line growth inhibition, 48 h
Classes are defined on TGI with ranges group 1 = under 20 µM, group 2 = from 20 µM up to 40 µM, group 3 = 40 µM and over

Worked cases, answers included:
>  <compound>
Cc1cc(NC(=O)NCCOc2ccc(N3C(N)=NC(N)=NC3(C)C)cc2Cl)ccc1S(=O)(=O)F

>  <assigned.category>
group 3

$$$$
>  <compound>
CCOC(=O)/C(C(N)=O)=C(\O)C(=O)/C=C(\O)c1ccc(Cl)cc1

>  <assigned.category>
group 3

$$$$
>  <compound>
Cc1cc(NS(=O)(=O)c2ccc(NC(=O)c3ccc(Cl)c4c(Nc5ccc(S(=O)(=O)Nc6cc(C)on6)cc5)c5ccccc5nc34)cc2)no1

>  <assigned.category>
group 3

$$$$
>  <compound>
Cc1cccc(CNc2c3ccccc3nc3ccccc23)c1

>  <assigned.category>
group 1

$$$$
>  <compound>
O=C(CC(C(=O)c1ccsc1)c1cccs1)c1ccccc1 (centres undefined)

>  <assigned.category>
group 3

$$$$
>  <compound>
CS(=O)(=O)OCCN(CCOS(C)(=O)=O)c1ccc(C=Nc2ccc(-c3csc(Cc4ccccc4)n3)cc2)c(Cl)c1

>  <assigned.category>
group 1

$$$$

Kindly review the next compound as well.
Prompt line: Would you mind sorting "O=S(=O)(F)Cc1ccccc1" into the appropriate category?
Response line: group 3

----------
# Test system: OVCAR-4 ovarian
# test.method.notes: NCI tumour cell line growth inhibition, 48 h
Property: TGI; scope: individual molecules

Illustrative cases are given below, each with its answer.
>  <molecule>
O=[N+]([O-])c1ccc(C[P+]2(c3ccccc3)CCCCC2)cc1 (tested in a mixture with another compound)

>  <reported.result>
> 100 µM

$$$$
>  <molecule>
CC1=C[P+](c2ccccc2)(c2ccccc2)c2ccccc2O1

>  <reported.result>
> 100 µM

$$$$
>  <molecule>
C=C1C(=O)OC2CC1C(OC(=O)/C=C/c1ccccc1)C/C(C)=C/CC/C(C)=C/CCC2(C)O (stereo not given)

>  <reported.result>
2.96 µM

$$$$
>  <molecule>
COc1ccc2c(c1OC)C(=O)C2

>  <reported.result>
> 100 µM

$$$$

Prompt line: Fill in the blank: the reported TGI of S=C1SCC2CCCN12 (stereo not given) is ____.
Response line: > 100 µM

----------
# System: HOP-92 NSCLC
# test.method.notes: NCI tumour cell line growth inhibition, 48 h
observable: TGI (µM)
Hi! Could you send only the number? It should be in µM, unit omitted.

Illustrative cases are given below, each with its answer.
>  <compound>
COc1cc2c(cc1OC)C(CCN)=NCC2

>  <reported.result>
15.1

$$$$
>  <compound>
CCO/N=C\c1ccc2oc(-c3ccccc3)cc(=O)c2c1

>  <reported.result>
31.5

$$$$
>  <compound>
O=C(COc1cc(=O)oc2ccccc12)c1ccccc1

>  <reported.result>
33

$$$$
>  <compound>
CC(C)(C)c1cc(C2c3cc4c(cc3OC(O)(CO)C2C(=O)O)OCO4)cc(C(C)(C)C)c1O (configuration not stated) (tested in a mixture with another compound)

>  <reported.result>
43.7

$$$$
>  <compound>
O=C(NC(=S)Nc1ccc(Br)cc1)c1ccc2c(c1)Sc1ccccc1O2

>  <reported.result>
74.9

$$$$

Prompt line: Fill in the blank: the reported TGI of O=C(O)c1cccc([As]=[As]c2cccc(C(=O)O)c2)c1 (configuration not stated) is ____.
Response line: 37.4

Prompt line: Fill in the blank: the reported TGI of "Nc1[nH]nc(Nc2ccccc2)c1-c1nc2ccccc2s1" is ____.
Response line: 3.77

Prompt line: Fill in the blank: the reported TGI of COC1CCCc2c(OC(C)=O)ccc(OC(C)=O)c21 (configuration not stated) is ____.
Response line: 34.1
